Answer each item with its documented GLP-1 EC50.
Target: GLP-1 receptor (UniProt P43220 24-463, limits assumed)
Test: cell-based or functional assay
Bridge positions count the residues as written; N and C are the ends. Ends that are not written are not given here. PLA = phenyl lactic acid
Form entry: value (nM) — number only.

Req: Data request, read-out GLP-1 EC50, for FTSEYSKYLDERRAKDFVQWLMNTGPSSGAPPPS (lactam 11-15) [E9, E16K20(lactam) glucagon(6-39) (Table 13, peptide 3)]
Resp: 36

Req: Now this one: {PLA}-TSDYSKYLDERRAKDFVQWLMDT (lactam 10-14) [[PLA6, D9, E16K20(lactam), D28]G(6-29)]
Resp: 4

Req: Now this one: FTSEYSKYLDERRAQDFVQWLMNTGPSSGAPPPS (lactam 7-11) [E9, K12E16(lactam) glucagon(6-39) (Table 13, peptide 2)]
Resp: 63

Req: Now this one: TSEYSKYLDERRAKDFVQWLMNTGPSSGAPPPS (PLA (phenyl lactic acid, in place of Phe6 of glucagon) at the N-terminus before the printed letters; lactam between E16 and K20 (glucagon numbering)) [[PLA6, E9, E16K20(Lactam)] glucagon(6-39) (Table 13, peptide 6)]
Resp: 20
